Hello, the source for this data is ChEMBL document CHEMBL1152488, in case you need it.

# TEST_SUMMARY: Lipophilicity, log D at pH 7.4 by HPLC method
# CONDITION_DESCRIPTION: buffer
MEASURED_ATTRIBUTE: logD

| COMPOUND | RECORDED_VALUE |
| --- | --- |
| CC1=CC=CN2CC(C(=O)c3ccc(C)cc3)CN=C12 (stereo unspecified) | 1.6 |
| O=C(c1ccccc1)C1CN=C2C=CC=CN2C1 (stereo unspecified) | 1.4 |
| CC1=CC=CC2=NCC(C(=O)c3ccc(C)cc3)CN12.[O-][Cl+3]([O-])([O-])O (stereo unspecified) | 1.6 |
| CC1=CC2=NCC(C(=O)c3ccc4ccccc4c3)CN2C=C1 (stereo unspecified) | 1.7 |
| CC1=CC=CC2=NCC(C(=O)c3ccc(-c4ccc(Br)cc4)cc3)CN12.[O-][Cl+3]([O-])([O-])O (stereo unspecified) | 2.8 |
| CC1=CC=CC2=NCC(C(=O)c3ccc(-c4ccccc4)cc3)CN12 (stereo unspecified) | 2.1 |

###

Recorded Activity values for a group of molecules are listed next.
# ASSAYED_SYSTEM: UniProt P29477
# Sequence (P29477 whole entry): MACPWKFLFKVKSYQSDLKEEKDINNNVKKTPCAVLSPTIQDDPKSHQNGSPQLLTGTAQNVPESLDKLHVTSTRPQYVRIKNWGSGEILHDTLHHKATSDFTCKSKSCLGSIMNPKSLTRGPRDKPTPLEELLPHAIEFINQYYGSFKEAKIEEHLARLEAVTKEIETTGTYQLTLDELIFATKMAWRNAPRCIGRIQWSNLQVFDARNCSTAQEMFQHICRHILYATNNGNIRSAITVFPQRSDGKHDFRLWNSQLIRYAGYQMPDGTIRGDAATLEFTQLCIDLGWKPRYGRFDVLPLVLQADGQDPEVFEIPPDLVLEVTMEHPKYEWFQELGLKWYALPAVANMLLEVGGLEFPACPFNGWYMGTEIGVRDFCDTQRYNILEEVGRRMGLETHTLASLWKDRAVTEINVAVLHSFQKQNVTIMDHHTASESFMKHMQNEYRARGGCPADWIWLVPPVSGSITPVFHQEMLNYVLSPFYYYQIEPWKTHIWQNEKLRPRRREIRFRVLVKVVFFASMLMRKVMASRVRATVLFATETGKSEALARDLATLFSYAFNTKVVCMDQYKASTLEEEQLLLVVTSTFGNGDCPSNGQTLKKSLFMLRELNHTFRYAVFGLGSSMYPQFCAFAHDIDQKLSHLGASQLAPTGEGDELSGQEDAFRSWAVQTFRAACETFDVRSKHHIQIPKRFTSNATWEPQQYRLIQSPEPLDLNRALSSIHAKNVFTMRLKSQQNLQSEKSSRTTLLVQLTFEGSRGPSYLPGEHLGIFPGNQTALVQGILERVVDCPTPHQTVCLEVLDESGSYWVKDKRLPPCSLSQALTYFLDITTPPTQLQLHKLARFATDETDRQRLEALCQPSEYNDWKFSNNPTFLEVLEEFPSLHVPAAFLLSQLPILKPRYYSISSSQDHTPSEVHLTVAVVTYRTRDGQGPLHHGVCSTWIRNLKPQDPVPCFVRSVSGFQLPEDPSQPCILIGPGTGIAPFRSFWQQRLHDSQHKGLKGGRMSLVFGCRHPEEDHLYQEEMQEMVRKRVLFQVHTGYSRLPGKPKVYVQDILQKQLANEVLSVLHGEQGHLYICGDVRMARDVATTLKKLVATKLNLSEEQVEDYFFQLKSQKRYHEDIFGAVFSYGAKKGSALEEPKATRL
# TEST_SUMMARY: Inhibition of mouse recombinant iNOS expressed in Escherichia coli assessed as conversion of [gamma-14C]L-arginine to [14C]L-citrulline at 100 uM by radioactive assay relative to control
# Set-up: scale not given: the % may be the effect or the level left
MEASURED_ATTRIBUTE: Activity (%)

| MOLECULE | ASSAYED_SYSTEM | SCALE_UNIT | RECORDED_VALUE |
| --- | --- | --- | --- |
| Cc1ccc(C(=O)C2CN=C3C=CC=CN3C2)cc1.[O-][Cl+3]([O-])([O-])O (stereo not drawn) | UniProt P29477 | % | 100 |
| CC1=CC2=NCC(C(=O)c3ccc4cc(C)ccc4c3)CN2C=C1.[O-][Cl+3]([O-])([O-])O (stereo not drawn) | UniProt P29477 | % | 13 |
| CC1=CC2=NCC(C(=O)c3ccc4cc(C)ccc4c3)CN2C(C)=C1.[O-][Cl+3]([O-])([O-])O (stereo not drawn) | UniProt P29477 | % | 28 |

###

# ASSAYED_SYSTEM: Nitric oxide synthase, inducible (Homo sapiens) (UniProt P35228)
# Sequence (P35228 whole entry): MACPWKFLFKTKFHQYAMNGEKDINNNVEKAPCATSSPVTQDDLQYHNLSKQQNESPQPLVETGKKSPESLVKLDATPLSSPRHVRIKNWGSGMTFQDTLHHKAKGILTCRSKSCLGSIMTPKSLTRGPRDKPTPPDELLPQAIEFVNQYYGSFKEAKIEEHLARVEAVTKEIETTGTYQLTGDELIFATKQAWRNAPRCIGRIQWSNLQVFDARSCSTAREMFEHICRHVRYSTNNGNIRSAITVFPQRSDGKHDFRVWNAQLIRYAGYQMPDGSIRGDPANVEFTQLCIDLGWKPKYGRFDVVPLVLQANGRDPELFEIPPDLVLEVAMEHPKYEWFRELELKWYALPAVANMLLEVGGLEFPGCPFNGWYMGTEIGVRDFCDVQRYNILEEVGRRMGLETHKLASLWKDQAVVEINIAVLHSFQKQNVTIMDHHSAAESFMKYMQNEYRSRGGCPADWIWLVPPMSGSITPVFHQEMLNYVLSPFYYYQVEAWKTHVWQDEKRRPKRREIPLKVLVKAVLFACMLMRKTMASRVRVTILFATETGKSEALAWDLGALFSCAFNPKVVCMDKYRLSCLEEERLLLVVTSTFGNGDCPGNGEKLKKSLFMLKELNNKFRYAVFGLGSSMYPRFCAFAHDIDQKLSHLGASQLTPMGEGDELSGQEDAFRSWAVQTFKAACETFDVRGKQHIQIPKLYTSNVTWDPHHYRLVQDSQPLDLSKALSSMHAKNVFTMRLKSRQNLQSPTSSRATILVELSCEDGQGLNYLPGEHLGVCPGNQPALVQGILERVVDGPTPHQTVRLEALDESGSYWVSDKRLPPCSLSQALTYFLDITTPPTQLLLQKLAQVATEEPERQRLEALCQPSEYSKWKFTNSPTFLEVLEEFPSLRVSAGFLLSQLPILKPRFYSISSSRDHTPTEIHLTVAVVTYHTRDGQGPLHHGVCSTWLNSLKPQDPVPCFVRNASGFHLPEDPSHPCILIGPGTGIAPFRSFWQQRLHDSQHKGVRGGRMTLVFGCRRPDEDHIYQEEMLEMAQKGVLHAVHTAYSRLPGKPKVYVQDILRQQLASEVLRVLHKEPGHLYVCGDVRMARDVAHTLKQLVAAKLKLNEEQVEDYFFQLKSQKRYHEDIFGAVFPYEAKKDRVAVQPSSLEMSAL
# TEST_SUMMARY: Inhibition of human iNOS expressed in insect Sf9 cells assessed as residual activity at 100 uM by Griess assay relative to control
Quick rule: Activity of at least 80% means Y, below that means N.

| COMPOUND | CLASS_NAME |
| --- | --- |
| CC1=CC=CC2=NCC(C(=O)c3ccc(Br)cc3)CN12 (stereo not given) | Y |
| Cc1ccnc(N)c1 | N |
| CC1=CC2=NCC(C(=O)c3ccc4cc(C)ccc4c3)CN2C=C1.[O-][Cl+3]([O-])([O-])O (stereo not given) | Y |
| CC1=CC=CC2=NCC(C(=O)c3ccc(F)cc3)CN12.[O-][Cl+3]([O-])([O-])O (stereo not given) | Y |
| CC1=CC2=NCC(C(=O)c3ccc(C4CCCCC4)cc3)CN2C=C1 (stereo not given) | N |
| CC1=CC2=NCC(C(=O)c3ccc(-c4ccc(O)cc4)cc3)CN2C=C1 (stereo not given) | Y |
| O=C(c1ccc(Br)cc1)C1CN=C2C=CC=CN2C1 (stereo not given) | Y |
| Cc1cc(C)nc(N)c1 | N |
| CC1=CC=CC2=NCC(C(=O)c3ccc4ccccc4c3)CN12 (stereo not given) | Y |
| CC1=CC2=NCC(C(=O)c3ccc(OCc4ccc(Br)cc4)cc3)CN2C=C1.Cl (stereo not given) | Y |
| CC(=N)NCc1cccc(CN)c1 | N |
| O=C(c1ccc(F)cc1)C1CN=C2C=CC=CN2C1 (stereo not given) | N |
| CC1=CC=CC2=NCC(C(=O)c3ccc4cc(C)ccc4c3)CN12 (stereo not given) | Y |
| CC1=CC2=NCC(C(=O)c3ccc(-c4ccc(C#N)cc4)cc3)CN2C=C1.Cl (stereo not given) | N |
| O=C(c1ccc(Cl)c(Cl)c1)C1CN=C2C=CC=CN2C1.[O-][Cl+3]([O-])([O-])O (stereo not given) | Y |
| CC1=CC2=NCC(C(=O)c3ccc(C#N)cc3)CN2C=C1 (stereo not given) | N |
| CC1=CC2=NCC(C(=O)c3ccc(-c4ccc(C(=O)O)cc4)cc3)CN2C=C1 (stereo not given) | Y |
| CC1=CC2=NCC(C(=O)c3ccc(OCc4ccc(Cl)cc4)cc3)CN2C=C1.[O-][Cl+3]([O-])([O-])O (stereo not given) | Y |

###

Recorded Activity values for a group of compounds are listed next.
# ASSAYED_SYSTEM: Nitric oxide synthase, inducible (Homo sapiens)
# TEST_SUMMARY: Inhibition of human iNOS expressed in insect Sf9 cells assessed as residual activity at 100 uM by Griess assay relative to control
MEASURED_ATTRIBUTE: Activity (%)

| COMPOUND | RECORDED_VALUE |
| --- | --- |
| CC1=CC2=NCC(C(=O)c3ccc(C(=O)O)cc3)CN2C=C1 (centres undefined) | 93 |
| COc1ccc2cc(C(=O)C3CN=C4C=C(C)C=C(C)N4C3)ccc2c1 (centres undefined) | 95 |
| CC1=CC2=NCC(C(=O)c3ccc4cc(C)ccc4c3)CN2C(C)=C1.[O-][Cl+3]([O-])([O-])O (centres undefined) | 83 |
| CC1=CC2=NCC(C(=O)c3ccc(Cl)cc3)CN2C=C1 (centres undefined) | 50 |

###

# ASSAYED_SYSTEM: UniProtKB P29473
# Sequence (P29473 whole entry): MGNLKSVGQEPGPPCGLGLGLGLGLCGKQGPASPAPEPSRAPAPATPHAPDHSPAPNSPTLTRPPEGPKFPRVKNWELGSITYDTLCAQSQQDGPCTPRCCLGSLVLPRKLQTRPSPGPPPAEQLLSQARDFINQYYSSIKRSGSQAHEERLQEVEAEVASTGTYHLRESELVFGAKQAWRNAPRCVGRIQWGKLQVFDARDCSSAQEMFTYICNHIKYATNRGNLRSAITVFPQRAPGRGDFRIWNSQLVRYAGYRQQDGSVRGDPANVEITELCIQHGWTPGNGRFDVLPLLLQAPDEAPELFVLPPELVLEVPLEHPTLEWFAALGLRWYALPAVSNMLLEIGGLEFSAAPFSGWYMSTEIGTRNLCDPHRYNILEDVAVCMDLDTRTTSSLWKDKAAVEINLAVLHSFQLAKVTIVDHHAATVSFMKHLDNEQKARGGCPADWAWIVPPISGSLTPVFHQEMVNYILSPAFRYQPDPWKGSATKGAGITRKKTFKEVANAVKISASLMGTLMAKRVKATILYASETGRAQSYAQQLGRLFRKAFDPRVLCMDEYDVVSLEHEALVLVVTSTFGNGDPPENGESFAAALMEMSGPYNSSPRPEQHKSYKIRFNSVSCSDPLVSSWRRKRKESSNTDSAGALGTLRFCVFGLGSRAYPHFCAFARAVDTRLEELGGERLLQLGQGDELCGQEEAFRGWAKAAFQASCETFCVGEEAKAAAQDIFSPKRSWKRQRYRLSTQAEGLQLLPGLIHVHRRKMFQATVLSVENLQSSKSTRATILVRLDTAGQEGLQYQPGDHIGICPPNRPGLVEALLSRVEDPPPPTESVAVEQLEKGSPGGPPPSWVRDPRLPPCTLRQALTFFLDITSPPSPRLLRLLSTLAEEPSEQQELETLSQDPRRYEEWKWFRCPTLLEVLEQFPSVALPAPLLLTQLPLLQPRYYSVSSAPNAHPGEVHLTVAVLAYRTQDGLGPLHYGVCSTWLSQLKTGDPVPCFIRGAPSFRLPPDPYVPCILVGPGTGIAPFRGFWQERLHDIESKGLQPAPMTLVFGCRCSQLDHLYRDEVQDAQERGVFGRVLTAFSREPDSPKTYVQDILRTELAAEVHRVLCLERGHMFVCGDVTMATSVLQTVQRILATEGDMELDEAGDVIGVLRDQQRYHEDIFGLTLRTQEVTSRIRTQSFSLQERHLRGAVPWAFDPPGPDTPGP
# TEST_SUMMARY: Inhibition of bovine recombinant eNOS expressed in Escherichia coli assessed as conversion of [gamma-14C]L-arginine to [14C]L-citrulline at 100 uM by radioactive assay relative to control
# Set-up: scale not given: the % may be the effect or the level left
Recorded Activity values for a group of compounds are listed next.
MEASURED_ATTRIBUTE: Activity (%)

| COMPOUND | ASSAYED_SYSTEM | MEASURED_ATTRIBUTE | RECORDED_VALUE |
| --- | --- | --- | --- |
| CC1=CC2=NCC(C(=O)c3ccc(OCc4ccc(Cl)cc4)cc3)CN2C=C1.[O-][Cl+3]([O-])([O-])O (stereo not drawn) | UniProtKB P29473 | Activity | 2 |
| CC1=CC=CC2=NCC(C(=O)c3ccc(C)cc3)CN12.[O-][Cl+3]([O-])([O-])O (stereo not drawn) | UniProtKB P29473 | Activity | 84 |
| COc1ccc(C(=O)C2CN=C3C=CC=C(C)N3C2)cc1OC.[O-][Cl+3]([O-])([O-])O (stereo not drawn) | UniProtKB P29473 | Activity | 81 |
| N=C(NCCC[C@H](N)C(=O)O)N[N+](=O)[O-] | UniProtKB P29473 | Activity | 5 |
| CC1=CC2=NCC(C(=O)c3ccc(OCc4ccc(Br)cc4)cc3)CN2C=C1.Cl (stereo not drawn) | UniProtKB P29473 | Activity | 77 |
| CC1=CC2=NCC(C(=O)c3ccc4cc(C)ccc4c3)CN2C=C1.[O-][Cl+3]([O-])([O-])O (stereo not drawn) | UniProtKB P29473 | Activity | 48 |
| COc1ccc(C(=O)C2CN=C3C(C)=CC=CN3C2)cc1OC (stereo not drawn) | UniProtKB P29473 | Activity | 94 |
| COc1ccc(C(=O)C2CN=C3C=C(C)C=CN3C2)cc1F.[O-][Cl+3]([O-])([O-])O (stereo not drawn) | UniProtKB P29473 | Activity | 59 |
| COc1ccc(-c2ccc(C(=O)C3CN=C4C=C(C)C=CN4C3)cc2)cc1.Cl (stereo not drawn) | UniProtKB P29473 | Activity | 15 |
| Cc1ccc(C(=O)C2CN=C3C=CC=CN3C2)cc1.[O-][Cl+3]([O-])([O-])O (stereo not drawn) | UniProtKB P29473 | Activity | 100 |
| CC1=CC2=NCC(C(=O)c3ccc(-c4ccc(Br)cc4)cc3)CN2C=C1.[O-][Cl+3]([O-])([O-])O (stereo not drawn) | UniProtKB P29473 | Activity | 65 |
| CC1=CC2=NCC(C(=O)c3ccc(-c4ccc(Br)cc4)cc3)CN2C(C)=C1 (stereo not drawn) | UniProtKB P29473 | Activity | 32 |
| CC1=CC2=NCC(C(=O)c3ccc(-c4ccc(C#N)cc4)cc3)CN2C=C1.Cl (stereo not drawn) | UniProtKB P29473 | Activity | 18 |

###

# ASSAYED_SYSTEM: UniProt:P29476
# Sequence (P29476 whole entry): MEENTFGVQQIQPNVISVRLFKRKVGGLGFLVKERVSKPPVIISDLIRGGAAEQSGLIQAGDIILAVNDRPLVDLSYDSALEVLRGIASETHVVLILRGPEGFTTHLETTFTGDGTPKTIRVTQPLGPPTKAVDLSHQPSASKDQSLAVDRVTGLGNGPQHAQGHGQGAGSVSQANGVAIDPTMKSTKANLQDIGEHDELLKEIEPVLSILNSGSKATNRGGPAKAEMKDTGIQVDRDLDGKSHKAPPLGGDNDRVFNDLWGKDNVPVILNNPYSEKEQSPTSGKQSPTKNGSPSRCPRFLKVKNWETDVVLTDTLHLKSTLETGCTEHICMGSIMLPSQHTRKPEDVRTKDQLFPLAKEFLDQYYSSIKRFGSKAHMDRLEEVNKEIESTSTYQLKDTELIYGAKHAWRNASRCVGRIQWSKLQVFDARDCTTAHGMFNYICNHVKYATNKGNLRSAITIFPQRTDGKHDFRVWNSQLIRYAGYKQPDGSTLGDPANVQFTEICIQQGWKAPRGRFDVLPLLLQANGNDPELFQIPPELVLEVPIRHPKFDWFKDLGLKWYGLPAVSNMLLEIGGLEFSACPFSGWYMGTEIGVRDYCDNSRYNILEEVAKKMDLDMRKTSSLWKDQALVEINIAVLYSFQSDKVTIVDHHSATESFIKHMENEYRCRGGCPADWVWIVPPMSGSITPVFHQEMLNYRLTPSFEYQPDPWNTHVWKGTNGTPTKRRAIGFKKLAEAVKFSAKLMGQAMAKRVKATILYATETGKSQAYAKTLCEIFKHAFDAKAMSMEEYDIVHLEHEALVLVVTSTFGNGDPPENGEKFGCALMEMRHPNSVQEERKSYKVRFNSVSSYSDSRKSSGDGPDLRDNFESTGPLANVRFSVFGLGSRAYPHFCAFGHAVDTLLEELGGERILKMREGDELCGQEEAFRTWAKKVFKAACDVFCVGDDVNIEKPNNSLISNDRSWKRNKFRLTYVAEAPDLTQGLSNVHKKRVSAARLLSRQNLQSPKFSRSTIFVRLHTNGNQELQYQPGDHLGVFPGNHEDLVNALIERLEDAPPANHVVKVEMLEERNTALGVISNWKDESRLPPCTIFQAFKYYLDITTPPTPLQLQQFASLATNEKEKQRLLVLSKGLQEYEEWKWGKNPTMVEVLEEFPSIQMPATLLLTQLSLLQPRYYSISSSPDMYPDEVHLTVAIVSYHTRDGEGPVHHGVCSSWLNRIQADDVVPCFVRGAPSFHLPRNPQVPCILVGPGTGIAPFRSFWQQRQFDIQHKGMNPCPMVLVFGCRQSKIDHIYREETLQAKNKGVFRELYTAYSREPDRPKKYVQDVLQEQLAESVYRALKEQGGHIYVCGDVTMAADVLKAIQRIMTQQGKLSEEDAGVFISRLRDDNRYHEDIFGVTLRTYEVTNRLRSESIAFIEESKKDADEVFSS
# TEST_SUMMARY: Inhibition of rat recombinant nNOS expressed in Saccharomyces cerevisiae assessed as conversion of [gamma-14C]L-arginine to [14C]L-citrulline at 100 uM by radioactive assay relative to control
# Parameters: scale not given: the % may be the effect or the level left
Quick rule: Activity of at least 60% means label 1, below that means label 0.

| COMPOUND | CLASS_NAME |
| --- | --- |
| COc1ccc(C(=O)C2CN=C3C(C)=CC=CN3C2)cc1OC (stereo not drawn) | label 0 |
| N=C(NCCC[C@H](N)C(=O)O)N[N+](=O)[O-] | label 0 |
| CC1=CC=CC2=NCC(C(=O)c3ccc(C)cc3)CN12.[O-][Cl+3]([O-])([O-])O (stereo not drawn) | label 1 |
| COc1ccc(C(=O)C2CN=C3C=C(C)C=CN3C2)cc1F.[O-][Cl+3]([O-])([O-])O (stereo not drawn) | label 1 |
| CC1=CC2=NCC(C(=O)c3ccc(-c4ccc(C#N)cc4)cc3)CN2C=C1.Cl (stereo not drawn) | label 0 |
| Cc1ccc(C(=O)C2CN=C3C=CC=CN3C2)cc1.[O-][Cl+3]([O-])([O-])O (stereo not drawn) | label 1 |
| O=[N+]([O-])c1cccc2cn[nH]c12 [7-NITROINDAZOLE] | label 0 |
| CC1=CC2=NCC(C(=O)c3ccc4cc(C)ccc4c3)CN2C(C)=C1.[O-][Cl+3]([O-])([O-])O (stereo not drawn) | label 0 |
| COc1ccc(-c2ccc(C(=O)C3CN=C4C=C(C)C=CN4C3)cc2)cc1.Cl (stereo not drawn) | label 0 |
| O=C(c1ccc(Cl)c(Cl)c1)C1CN=C2C=CC=CN2C1.[O-][Cl+3]([O-])([O-])O (stereo not drawn) | label 1 |
| CC1=CC2=NCC(C(=O)c3ccc(-c4ccc(Br)cc4)cc3)CN2C=C1.[O-][Cl+3]([O-])([O-])O (stereo not drawn) | label 0 |
| CC1=CC=CC2=NCC(C(=O)c3ccc(F)cc3)CN12.[O-][Cl+3]([O-])([O-])O (stereo not drawn) | label 1 |
| COc1ccc(C(=O)C2CN=C3C=CC=C(C)N3C2)cc1OC.[O-][Cl+3]([O-])([O-])O (stereo not drawn) | label 1 |
